Origin of measurements: PubChem BioAssay (NCI)

System: HL-60(TB) leukemia
Assay Details: NCI tumour cell line growth inhibition, 48 h; in the data active means GI50 below about 0.43 µM; inactive means the rest
Respond with a class label; see active, inactive

Sample answers from the record:
> print(dat)
                                   compound  class.label
1               Oc1cc(Cl)ccc1Cc1ccc(Cl)cc1O     inactive
2  CC1(C)Cc2c(Br)c(Br)c(Br)c(OCC(O)CN3CCOCC3)c2O1 (centres undefined)     inactive
3  CCOC(=O)C1=C(c2ccccc2)N(c2ccc(OC)cc2)[C@]2(C#N)C(O)=C(Cl)C(Cl)=C(O)[C@]12C#N     inactive

Query block: Please share the test call associated with COc1ccc(-c2csc3c2-n2cccc2C3=O)cc1O .
Result block: active

Query block: Repeat for the following compound: COc1ccc(-n2c(C)nc3c(c(C)nn3-c3ccccc3)c2=O)cc1
Result block: active

Query block: Repeat for the following compound: OCc1ccc(Oc2c3ccccc3nc3occc23)cc1
Result block: inactive

Query block: Repeat for the following compound: Cc1ccc(F)cc1NC(=O)c1cc(Cl)ccc1Nc1ccccc1
Result block: inactive

Query block: Repeat for the following compound: Cc1ccc(/C(=C/C=C(C#N)C#N)Sc2ccccn2)cc1
Result block: active

Query block: Repeat for the following compound: COc1cc(-c2n/c(=C\c3c(O)[nH]c4ccccc34)cc3c2=Nc2ccccc2-3)cc(OC)c1OC
Result block: inactive
